quantity-name: melting point

Before answering, review these 5 worked examples.
In [3]: df
Out[3]:
                                   compound  quantity_name         result
0  O=C1Nc2ccc([N+](=O)[O-])cc2C1c1ncnc2nn(C3CCCCC3)cc12 (stereo not drawn)  melting point  301 to 304 °C
1  CCOCCn1cc2c(C3C(=O)Nc4ccc(Br)cc43)nc(Cl)nc2n1 (stereo not drawn)  melting point  260 to 263 °C
2  O=c1[nH]c2ccccc2n1-c1ncnc2nn(C3CCCC3)cc12  melting point  236 to 240 °C
3  O=C1Nc2cc(Cl)ccc2C1c1ncnc2nn(C3CCCCC3)cc12 (stereo not drawn)  melting point  299 to 303 °C
4  CCCCCn1cc2c(C3C(=O)Nc4ccc(C#N)cc43)nc(Cl)nc2n1 (stereo not drawn)  melting point  254 °C (dec.)

Batch of 3 compounds: report melting point for each.
1. O=C1Nc2ccc(C(F)(F)F)cc2C1c1ncnc2c1cnn2C1CCCC1 (stereo not drawn)
2. CCCn1cc2c(C3C(=O)Nc4ccc(Br)cc43)nc(NCCCN)nc2n1 (stereo not drawn)
3. CCCn1cc2c(C3C(=O)Nc4ccc(C#N)cc43)nc(NCc3ccncc3)nc2n1 (stereo not drawn)

A.
1: > 300 °C; 2: > 300 °C; 3: 299 to 302 °C

Parameter requested: melting point. Apply to each item below.
1. CNc1nc(C2C(=O)Nc3ccc(C(F)(F)F)cc32)c2cn(C3CCCC3)nc2n1 (stereo not drawn)
2. CC(C)CNc1nc(C2C(=O)Nc3ccccc32)c2cn(C3CCCC3)nc2n1 (stereo not drawn)
3. COCCNc1nc(C2C(=O)Nc3ccc(Cl)cc32)c2cn(CC(C)C)nc2n1 (stereo not drawn)
4. O=C1Nc2ccc(C(F)(F)F)cc2C1c1nc(NCCCN2CCOCC2)nc2nn(C3CCCC3)cc12 (stereo not drawn)
5. CN(C)CCNc1nc(C2C(=O)Nc3ccc(C(F)(F)F)cc32)c2cn(C3CCCC3)nc2n1 (stereo not drawn)
6. O=C1Nc2ccc(C(F)(F)F)cc2C1c1ncnc2c1cnn2C1CCCCC1 (stereo not drawn)
7. CCCn1ncc2c(C3C(=O)Nc4ccc(C#N)cc43)ncnc21 (stereo not drawn)

A.
> 300 °C
280 to 282 °C
286 to 289 °C
288 to 291 °C
211 to 213 °C
> 300 °C
> 300 °C

Here are 3 compounds. What values of melting point were reported for them?
1. O=C1Nc2cc(Cl)ccc2C1c1ncnc2nn(C3CCCC3)cc12 (stereo not drawn)
2. CCCCCn1cc2c(C3C(=O)Nc4ccc(C(F)(F)F)cc43)nc(NCCN)nc2n1 (stereo not drawn)
3. CCNc1nc(C2C(=O)Nc3ccc(C#N)cc32)c2cn(C3CCCC3)nc2n1 (stereo not drawn)

A.
["294 to 296 °C", "192 °C (dec.)", "373 °C (dec.)"]
